Give pKd for every item shown.
TARGET DESC: T1, human SIRPα v5-Fc (SIRPα5 extracellular domain fused to human IGHG1_Fc) (human, UniProt P78324 31-373; P0DOX5 223-449 = IgG part)
T1 construct: as m38; also called V5 (e.g. SIRPα5)
RUN DESCRIPTION: BLI Octet, antigen-Fc on biosensor;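 also: antigen captured on the biosensor tip and then immersed in solutions of the test antibodies, which act as the analyte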
Numbers only, as −log10 of the molar value.

[[record]]
binder = "SIRPAB-9 (antibody, human IgG1, kappa, V domains shown) VH: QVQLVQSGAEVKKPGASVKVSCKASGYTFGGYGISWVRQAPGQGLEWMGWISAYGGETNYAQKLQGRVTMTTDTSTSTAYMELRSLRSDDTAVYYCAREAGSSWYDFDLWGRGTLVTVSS VL: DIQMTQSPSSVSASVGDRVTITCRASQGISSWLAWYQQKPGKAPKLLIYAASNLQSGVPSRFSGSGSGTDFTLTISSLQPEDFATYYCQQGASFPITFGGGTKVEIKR"
obs_value = 8.32

[[record]]
binder = "SIRPAB-7 (antibody, human IgG1, kappa, V domains shown) VH: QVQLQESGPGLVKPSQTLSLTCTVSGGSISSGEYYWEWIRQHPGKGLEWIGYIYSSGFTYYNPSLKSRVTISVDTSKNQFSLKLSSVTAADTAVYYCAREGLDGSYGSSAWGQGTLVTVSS VL: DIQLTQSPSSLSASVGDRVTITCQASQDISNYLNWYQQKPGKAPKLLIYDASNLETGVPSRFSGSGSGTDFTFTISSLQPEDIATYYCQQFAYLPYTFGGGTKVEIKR"
obs_value = 9.18

[[record]]
binder = "SIRPAB-13 (antibody, human IgG1, kappa, V domains shown) VH: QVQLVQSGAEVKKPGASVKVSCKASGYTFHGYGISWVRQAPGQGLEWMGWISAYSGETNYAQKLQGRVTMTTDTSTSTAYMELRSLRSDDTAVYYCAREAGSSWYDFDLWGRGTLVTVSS VL: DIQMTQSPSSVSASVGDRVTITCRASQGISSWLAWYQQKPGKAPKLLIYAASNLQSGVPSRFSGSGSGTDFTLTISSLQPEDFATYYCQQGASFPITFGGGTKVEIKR"
obs_value = 8.11


Now consider the entry below.
Query :: Fill in the blank: the reported pKd of SIRPAB-10 (antibody, human IgG1, kappa, V domains shown) VH: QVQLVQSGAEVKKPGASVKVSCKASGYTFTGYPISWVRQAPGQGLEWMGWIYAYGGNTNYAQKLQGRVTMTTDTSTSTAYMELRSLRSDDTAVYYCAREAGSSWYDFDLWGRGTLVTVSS VL: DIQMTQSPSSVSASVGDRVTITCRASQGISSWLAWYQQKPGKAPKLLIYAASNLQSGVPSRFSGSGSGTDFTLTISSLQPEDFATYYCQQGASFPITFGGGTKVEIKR is ____.
Result :: 8.80
